Tested on: Rattus norvegicus
measurement-description: Percent change in total cholesterol level in cholic acid (0.5%),cholesterol(1.5%),peanut oil(5.5%) fed rats at 30 mg/kg.
Type: functional
Use True when the recorded Delta TC is no lower than -50%; use False when it is lower.

Query string: Does the reported Delta TC for CCOC(=O)C(C)(C)C(=O)Nc1c(C(C)C)cccc1C(C)C fall at or above the -50% mark?
Result string: True

Query string: Does the reported Delta TC for CCCCCCCCCCCCCCCCCCOC(=O)C(C(=O)Nc1c(C(C)C)cccc1C(C)C)c1ccccc1 (stereo not drawn) fall at or above the -50% mark?
Result string: True

Query string: Does the reported Delta TC for CCCCC(C)(C)OC(=O)C(C(=O)Nc1c(C(C)C)cccc1C(C)C)c1ccccc1 (stereo not drawn) fall at or above the -50% mark?
Result string: False

Query string: Does the reported Delta TC for CCCCCCCCCCCCOC(=O)C(C(=O)Nc1c(C(C)C)cccc1C(C)C)c1ccccc1 (stereo not drawn) fall at or above the -50% mark?
Result string: False

Query string: Does the reported Delta TC for CCCCCCCCCCCCC(C)(C)OC(=O)C(C(=O)Nc1c(C(C)C)cccc1C(C)C)c1ccccc1 (stereo not drawn) fall at or above the -50% mark?
Result string: True

Query string: Does the reported Delta TC for CCOC(=O)C(C(=O)Nc1c(C(C)C)cccc1C(C)C)c1ccccc1 (stereo not drawn) fall at or above the -50% mark?
Result string: True

The measurements presented in this section are drawn from ChEMBL document CHEMBL1131340.
